# Test system: MS2 coat protein
# assay: apparent KD of MS2 coat protein; designed switch direction (-1 OFF switch, 1 ON switch): 1; higher = weaker reporter binding
# test_context: Eterna round: R95; input ligand: microRNA oligo, concentration not stated
Kind request: treat 0.2 µM as inclusive, so apparent KD of MS2 coat protein at 0.2 µM or higher is y, anything lower is n.

- sequence_entry: "GGUAAACAUGAGGAUCACCCAUGUAAUAUAAUGGGAGGAUAUCUGAAUUAAUUAAAUUAAGGAGAAGGCCUAAUGG [Mat - Same State 1 - Mod of Eli - D49] (puzzle: Same State 1)"
  class_name: "y"
- sequence_entry: "UGGUAACAUGAGGAUCACCCAUGUCAAAUGAAUCGAGGAUAUGGGAAAGGAGAAGAGAAACCAGAAGGCGAAGUUG [Altered State 1-13 - Jieux - Same State 1] (puzzle: Same State 1)"
  class_name: "n"
- sequence_entry: "AAGUAACAUGAGGAUCACCCAUGUGAGGUGAGCGUAGGAUAUCGAGGAGGUAGGGUAGGUCGAGAAGGACGAGAAG [JR_SS1_Sub095] (puzzle: Same State 1)"
  class_name: "y"
- sequence_entry: "UCUUGGUUUUUGCUCGUUUUUUGUGUUGAACAUGAGGAUCACCCAUGUAUUGUACGGUCCAAUUUAGUAGUGGUCCG [JMF 25] (puzzle: Sensor for hsa-mir-208a)"
  class_name: "n"
- sequence_entry: "AGUCCACCCUGAGGUGGACAAAAGCAUGUACAUGAGGAUCACCCAUGUCAUGUACAAGCUUUUUGCUCGUCUUAAUA [Mat - hsa-mir-208a - Mod of JL - D42] (puzzle: Sensor for hsa-mir-208a)"
  class_name: "n"

====

Entries annotated with measured apparent KD of MS2 coat protein
# Test system: MS2 coat protein
# assay: apparent KD of MS2 coat protein, switch OFF state (with FMN for OFF switches, without FMN for ON switches); designed switch direction (-1 OFF switch, 1 ON switch): 1; higher = weaker reporter binding
# test_context: FMN input: 0 or 200 uM; Eterna round: R93 (includes R88 designs)

- sequence_entry: "AUAAAGAAAAGGCAGGAUAUGUAAACUAAAACAUGAGGAUCACCCAUGUGGGAAAUAAAAUAAAAACAGAAGGGCCAAAAGAAUA [Designing denovo 17]"
  measured_target: "MS2 coat protein"
  u: "nM"
  apparent KD of MS2 coat protein: 32.8
- sequence_entry: "UAAAAACAUGAGGAUCACCCAUGUGAGAACAUGGGAGGAUAUACGAAGACGAAAGUCGAAGUAGAAGGCCUAAAAU [Mat - Same State 1 - Mod - D172]"
  measured_target: "MS2 coat protein"
  u: "nM"
  apparent KD of MS2 coat protein: 39.3
- sequence_entry: "GAAGACAUAGUUCAGGAUAUAGGAAUAGUCACAUGAGGAUCACCCAUGUGCAUUUAUAUGCGCGCUUAGAAGGGAGGUAGAUAAU [Mat - Same state - Malcolm Mod - D119]"
  measured_target: "MS2 coat protein"
  u: "nM"
  apparent KD of MS2 coat protein: 21.2
- sequence_entry: "AGAAAUAAACCGAAGGAUAUCUAAACCUAAACAUGAGGAUCACCCAUGUAAAAGAAAAUAAAAUGGGAGAAGGUCGGAAAUAAGA [Designing denovo 12]"
  measured_target: "MS2 coat protein"
  u: "nM"
  apparent KD of MS2 coat protein: 29.9
- sequence_entry: "AGAAGACAUGAGGAUCACCCAUGUGGGAAUAUGGGAGGAUAUACAAAGACGAGAGUCAGAGUAGAAGGCCUAGGAU [salish99-SS1-092]"
  measured_target: "MS2 coat protein"
  u: "nM"
  apparent KD of MS2 coat protein: 118
- sequence_entry: "ACUAUACAUGAGGAUCACCCAUGUCAGGUGGGACUAGGAUAUCAUAAGCCAGAGUAAGUAUGAGAAGGAGUAGAAA [JR_SS001_Sub305]"
  measured_target: "MS2 coat protein"
  u: "nM"
  apparent KD of MS2 coat protein: 74.7

====

Catalogue of apparent KD of MS2 coat protein readings, one per entry.
# System: MS2 coat protein
# assay: apparent KD of MS2 coat protein; designed switch direction (-1 OFF switch, 1 ON switch): 1; higher = weaker reporter binding
# test_context: Eterna round: R95; input ligand: microRNA oligo, concentration not stated
quantity_kind: apparent KD of MS2 coat protein (nM)

- sequence_entry: "GGUCCAGCCUGAGCUGGACAAAAGCAUGUACAUGAGGAUCACCCAUGUUCAUGUACAAGCUUUUUGCUCGUCUUAGG [salish99_208a_r3_070] (puzzle: Sensor for hsa-mir-208a)"
  data_value: 19.8
- sequence_entry: "GGAGCUGGCACUGAGGAUAUUCAUAUUUAAACAUGAGGAUCACCCAUGUAGGCCAGAAGGCCUUGGGAGAAGGCAGGUCGGCUCG [salish99_ss2_r3_085] (puzzle: Same State 2)"
  data_value: 254
- sequence_entry: "UGGAUCUAGGCUUGCCUGGGUCCAUGCUGACAUGAGGAUCACCCAUGUGCAUCCUACAAGCUUUUUGCUUGUCGGCU (puzzle: Sensor for hsa-mir-208a)"
  data_value: 194

====

# Test system: MS2 coat protein
# assay: apparent KD of MS2 coat protein; designed switch direction (-1 OFF switch, 1 ON switch): -1; higher = weaker reporter binding
# test_context: Eterna round: R98; input ligand: none
# if value of apparent KD of MS2 coat protein reaches 0.02 µM, tag true; if it stays below, tag false

- sequence_entry: "GCUGCAAAGUAAGGAUAUGCCUAGGAAACCUAGGCAGAAGGUACAUGAGGAUCACCCAUGUUAACUGAAACAGAAUAAAGCAGC [Thrunch 6 - Jieux - Exclusion NG 1]"
  class_name: "false"
- sequence_entry: "GGUUAUAUAACAUGAGGAUCACCCAUGUGAGUGGUCCGAAGCUAGGAUAUCCACACGAGAAGUGUGGAGAAGGAGCAUUCAUUA [AK-NGROCr2-ExNG3-7]"
  class_name: "true"
- sequence_entry: "AAAGUCGAGAAGAUAAUAAUGAAUACAUGAGGAUCACCCAUGUAGGAUAUGCAGUGGAAUACACUGCAGAAGGACAUACUCGAC [Exclusion NG 3/16-B1]"
  class_name: "false"
- sequence_entry: "UUGCAUUGAUGAGGAUAUGGACAUGAGGAUCACCCAUGUUGGGCGGGUAUGAUUUCCGAGGGAGGCUAGAAGGCGUAUUAUGUU [Exclusion NG 2]"
  class_name: "true"
- sequence_entry: "AGGUGGGUGCUGCAGUGAUAUACAUGAGGAUCACCCAUGUCCGAGGAUAUGCGGCAAACACGCCAGCAGAAGGCGGAGAAAAUG [Soorisrila]"
  class_name: "true"
- sequence_entry: "GCGUAAAAGAUCCUAUUUAUCUACAUGAGGAUCACCCAUGUGCAGGAUAUGCUAUAUUUAAUAAAGCAGAAGGGCAAUAACCGC [JR_ExcNG3_Sub009]"
  class_name: "true"
- sequence_entry: "AGUACUCCAGAAGGAUAUGCGUCGGUGGAUGUCCUUAGGCGGACGGUCACAUGAGGAUCACCCAUGUAGAAGGUCUGGGAGCCA [Leesla]"
  class_name: "false"
- sequence_entry: "UCUUAAAUGAUCCUAUUUACCAACAUGAGGAUCACCCAUGUGCAGGAUAUGCUAAAGAUAGAUAAGCAGAAGGGCAUUAACCGC [JR_ExcNG3_Sub006]"
  class_name: "true"
- sequence_entry: "AAUUAAUUAAUUAAUUGGACUGAUACAUGAGGAUCACCCAUGUAGGAUAUGCAGUGGAAUACACUGCAGAAGGACAUACAGUCC [Exclusion NG 3/1-B2]"
  class_name: "false"
- sequence_entry: "CACGACAGGAAACGGAGCGGCCAACAUGAGGAUCACCCAUGUGAGGAUAUGCCUACUAAAAGUAGGCAGAAGGCACAGAAGGCA [Ex NG2 #73]"
  class_name: "true"
- sequence_entry: "GCACUGGAUGUAGGAUAUCAGGACGAUAAGUCCUGAGAAGGACAUGAGGAUCACCCAUGUAAAUACUCCCAGUGCAAUAAUAUA [Denovo Exng1 21]"
  class_name: "false"

====

# Test system: MS2 coat protein
# assay: apparent KD of MS2 coat protein; designed switch direction (-1 OFF switch, 1 ON switch): -1; higher = weaker reporter binding
# test_context: input ligand: FMN 200 uM
Classification field: yes (1) = apparent KD of MS2 coat protein at or over 200 nM; no (0) = apparent KD of MS2 coat protein under 200 nM.

- sequence_entry: "GUCAGCUCGUGAGGAUAUACAUCACUGCUUCGGCAGUGUAUUAAGAUCACAUGAGGAUCACCCAUGUAGAAGGUACGAGCUGAU [ENG2/2-C2] (Eterna round: R96, puzzle: Exclusion NG 2)"
  class_name: "yes (1)"
- sequence_entry: "UGAACCCAUGUUAGGAUAUCAGGCCGAGGAAGUUCUGAGAAGGGACAUGAGGAUCACCCAUGUAUAAAAGAAAC [Veontiinge] (Eterna round: R96, puzzle: Brourd's mod of Exclusion 4)"
  class_name: "no (0)"
- sequence_entry: "CCAUCACAUGAGGAUCACCCAUGUUAGGAUAUCGUGCUGAUACCAUGUAUUGAAGUAGCGAGAAGGAGCGUUGG [Eternabot (L1) Solution 53] (Eterna round: R97, puzzle: Exclusion 1)"
  class_name: "no (0)"
- sequence_entry: "CUCAAAAGUCGGUUUACACACAUGAGGAUCACCCAUGUAAGCAAACAUAUAGGCUCUACGAUUUGCUCGCUCUUAUA [Eternabot (L1) Solution 34] (Eterna round: R97, puzzle: Sensor, turn-off variant 1)"
  class_name: "no (0)"
- sequence_entry: "AUAAUGUAAGGAUAUCAGUCGUUAAUAAUUUAAUAAUCGACUGAGAAGGUACAUGAGGAUCACCCAUGUGAUCA [E4/8-B1] (Eterna round: R97, puzzle: Exclusion 4)"
  class_name: "yes (1)"
